assay: protein stability index of a GFP-peptide fusion (yeast GPS) (PSI 1-4); higher = more stable; sorted into four equal gates, so the index is relative within each strain; details: doa10∆
Rule: protein stability index under 3 gives Criterion not met, otherwise Criterion met.

[
  {
    "item.sequence": "KRRFGELMDRTGLKLYS [RPP1]",
    "assigned.category": "Criterion not met"
  },
  {
    "item.sequence": "PLKYAPHLPFSKSENPV [SWI3]",
    "assigned.category": "Criterion not met"
  },
  {
    "item.sequence": "EKNGGLGWDLDAIIPFA [FAS2]",
    "assigned.category": "Criterion met"
  },
  {
    "item.sequence": "LEIASSIDCLLILILVI [SWI1]",
    "assigned.category": "Criterion not met"
  },
  {
    "item.sequence": "VEIAYHKCDELITLFNK [RPO31]",
    "assigned.category": "Criterion met"
  },
  {
    "item.sequence": "LRTVKEVQFGLFSPEEV [RPO21]",
    "assigned.category": "Criterion not met"
  },
  {
    "item.sequence": "MSVERGIRWELISRLCP [RPT1]",
    "assigned.category": "Criterion not met"
  },
  {
    "item.sequence": "KFLREVFVDGEANWPLP [RPO21]",
    "assigned.category": "Criterion not met"
  },
  {
    "item.sequence": "PHTPVTRKGYIPSSKYA [YLR018C/POM34]",
    "assigned.category": "Criterion met"
  },
  {
    "item.sequence": "KSFYSTATGAASKSGKL [CYT1]",
    "assigned.category": "Criterion not met"
  },
  {
    "item.sequence": "IAHENEQKWLIYDKKDH [SRB8]",
    "assigned.category": "Criterion not met"
  },
  {
    "item.sequence": "RLNNVFVIGEQGKPYIS [RPS4A]",
    "assigned.category": "Criterion not met"
  },
  {
    "item.sequence": "KYIVKASSGPRYIVGVR [RPT4]",
    "assigned.category": "Criterion not met"
  },
  {
    "item.sequence": "ELKTRDATNTSYKMIQL [SWP82]",
    "assigned.category": "Criterion met"
  },
  {
    "item.sequence": "KIREDHINKIPSNSTTT [SRB8]",
    "assigned.category": "Criterion not met"
  },
  {
    "item.sequence": "LATYCPRVQGFYVPQAR [GRR1]",
    "assigned.category": "Criterion not met"
  },
  {
    "item.sequence": "TLELSAQFRVPRYHSKN [SWP82]",
    "assigned.category": "Criterion not met"
  },
  {
    "item.sequence": "KPSFSFGVPNSSKNETS [YLR335W/NUP2]",
    "assigned.category": "Criterion not met"
  },
  {
    "item.sequence": "TTVFFSRQKSGLFDSFT [YML031W/NDC1]",
    "assigned.category": "Criterion not met"
  },
  {
    "item.sequence": "KSSPISNEAAKPSFSFP [YOR098C/NUP1]",
    "assigned.category": "Criterion not met"
  },
  {
    "item.sequence": "TQTYMQMIELNRQICLV [GRR1]",
    "assigned.category": "Criterion not met"
  },
  {
    "item.sequence": "AFVEFGASVIAGGQRIV [SWP82]",
    "assigned.category": "Criterion not met"
  },
  {
    "item.sequence": "KAEKAEIRKRRASSLKA [RPS6A]",
    "assigned.category": "Criterion not met"
  },
  {
    "item.sequence": "SHILNSHSLALNEITNS [DSN1]",
    "assigned.category": "Criterion not met"
  },
  {
    "item.sequence": "KVLINDQLSTISMILRN [SWI1]",
    "assigned.category": "Criterion not met"
  },
  {
    "item.sequence": "IILSIDEHHESFELKEE [RRP6]",
    "assigned.category": "Criterion met"
  },
  {
    "item.sequence": "VPFESLQGVTYPVLRKL [YIL149C/MLP2]",
    "assigned.category": "Criterion not met"
  },
  {
    "item.sequence": "NALYDTLLESNLCKIIE [RPN6]",
    "assigned.category": "Criterion not met"
  },
  {
    "item.sequence": "RFQKCFPPGVIGIDEGS [RPC40]",
    "assigned.category": "Criterion not met"
  },
  {
    "item.sequence": "ITIFSPEGRLYQVEYAF [SCL1]",
    "assigned.category": "Criterion not met"
  },
  {
    "item.sequence": "TIPILESDSKATLQSNE [DSN1]",
    "assigned.category": "Criterion not met"
  },
  {
    "item.sequence": "RAFTKKVSSASAAASES [RPL16B]",
    "assigned.category": "Criterion not met"
  },
  {
    "item.sequence": "MDVDSVKTTLVSLTQLR [RPC82]",
    "assigned.category": "Criterion not met"
  },
  {
    "item.sequence": "DDEPTTPAELVGKFLGY [FAS1]",
    "assigned.category": "Criterion met"
  },
  {
    "item.sequence": "VILGADSRTTTGAYIAN [PRE3]",
    "assigned.category": "Criterion not met"
  },
  {
    "item.sequence": "TGGLFGAKPAGSTGGLG [YGL172W/NUP49]",
    "assigned.category": "Criterion met"
  },
  {
    "item.sequence": "VDVLGTHSQTGTQQSNM [SIR4]",
    "assigned.category": "Criterion met"
  },
  {
    "item.sequence": "QNDELTMGMRALLKLSV [DIS3]",
    "assigned.category": "Criterion not met"
  },
  {
    "item.sequence": "ISEINFLHESSFDSIDH [CSI1]",
    "assigned.category": "Criterion not met"
  },
  {
    "item.sequence": "MIISGSRDKTIKVWTIK [ASC1]",
    "assigned.category": "Criterion not met"
  },
  {
    "item.sequence": "LNPNEYFSVTTARRNVS [SWI3]",
    "assigned.category": "Criterion not met"
  },
  {
    "item.sequence": "VLVVRGSKKGQEGKISS [RPL26A]",
    "assigned.category": "Criterion met"
  },
  {
    "item.sequence": "AYSPKQDEQKHNENENS [RPO21]",
    "assigned.category": "Criterion not met"
  },
  {
    "item.sequence": "FLQHPDEEYPVKVKVSY [PRP8]",
    "assigned.category": "Criterion met"
  },
  {
    "item.sequence": "HPFGHALVAGIERYPSK [RPL27B]",
    "assigned.category": "Criterion not met"
  },
  {
    "item.sequence": "FRCKETHSYNFMRQNLE [RPC82]",
    "assigned.category": "Criterion not met"
  },
  {
    "item.sequence": "NDANITSNKEGFNSIWK [SSN2]",
    "assigned.category": "Criterion met"
  },
  {
    "item.sequence": "SRHFASYANLPGTITHG [FAS1]",
    "assigned.category": "Criterion not met"
  },
  {
    "item.sequence": "VLNEDDLAFGGEANKHH [RPN5]",
    "assigned.category": "Criterion met"
  },
  {
    "item.sequence": "IKIGIRVMKSLSINEKD [YCG1]",
    "assigned.category": "Criterion not met"
  },
  {
    "item.sequence": "GKILLKGDNITLITSAD [SME1]",
    "assigned.category": "Criterion not met"
  }
]
